- assayedTarget: CYP2A6 (Homo sapiens, UniProt P11509)
- Sequence (P11509 1-494): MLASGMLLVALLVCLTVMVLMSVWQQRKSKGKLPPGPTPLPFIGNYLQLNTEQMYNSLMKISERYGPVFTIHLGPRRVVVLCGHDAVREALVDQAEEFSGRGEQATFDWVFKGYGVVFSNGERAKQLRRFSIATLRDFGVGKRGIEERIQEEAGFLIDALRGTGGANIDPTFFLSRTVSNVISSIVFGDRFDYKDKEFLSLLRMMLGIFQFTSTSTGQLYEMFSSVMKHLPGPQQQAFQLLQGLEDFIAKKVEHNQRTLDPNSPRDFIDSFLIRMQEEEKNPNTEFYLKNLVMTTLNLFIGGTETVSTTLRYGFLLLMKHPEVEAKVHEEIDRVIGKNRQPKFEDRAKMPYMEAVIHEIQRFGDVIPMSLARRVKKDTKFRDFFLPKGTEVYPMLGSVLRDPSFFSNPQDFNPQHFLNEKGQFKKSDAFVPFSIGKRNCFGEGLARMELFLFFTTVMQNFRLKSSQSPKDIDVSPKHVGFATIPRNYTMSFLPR
- experimentalDetails: Time-dependent inhibition (TDI) IC50 shift assay on CYP2A6 in HLMs
- Type: in vitro ADME
- Parameters: pooled human liver microsomes from a mixed pool of 50 donors; tissue BD Gentest Co. 452156; host or cells: human liver microsomes, pool of 50 donors
- runConditions: 0 min pre-incubation with NADPH, 10 min incubation, read-out: IC50 on CYP2A6, 0 min inactivation incubation (TDI)
readoutName: IC50

[
  {
    "compound": "C[C@@H]1[C@H]2c3cc4c(cc3O[C@@]35OCOC3=CC(=O)[C@H](C[C@H]1C)[C@@H]25)OCO4 [Sauchinone]",
    "assayedTarget": "CYP2A6 (Homo sapiens, UniProt P11509)",
    "result": "> 300 µM"
  }
]
